- Tested on: SW-620
- procedure_details: NCI tumour cell line growth inhibition, 48 h
The source made the active and inactive calls. No stated cut-off is given here; in the data, active = GI50 up to about 1.1 µM and inactive = higher.
value_kind: GI50

Previously resolved entries follow.
Cc1nnc2cc(C(=O)O)c3ccccc3n2c1=O :: > 10 µM (inactive)
COC(=O)C(Cc1nc2ccccc2nc1O)C(=O)C(=O)Nc1cc(C(F)(F)F)ccc1Cl (stereo not drawn) :: 13.8 µM (inactive)
C[N+]12C=CC=C1C(N1CCCC1)c1scc(-c3ccccc3)c12 (stereo not drawn) :: 93.3 µM (inactive)
C/C(=C\c1ccc(Cl)cc1)C(C)(C)C(=O)O :: > 100 µM (inactive)
CC(=O)N(CCN1C(=O)c2ccccc2C1=O)CCN1C(=O)c2ccccc2C1=O :: > 100 µM (inactive)

GI50 for COc1ccc(C2ON(c3ccccc3)CC=C2C)cc1 (stereo not drawn) ? > 100 µM (inactive)

Same question for "CC(C)c1ccc(C(c2ccc(OCC(=O)O)cc2)c2ccc(C(C)C)cc(=O)c2O)c(O)c(=O)c1" please. 4.8 µM (inactive)

// repeat for "CC(CCC(=O)O)(c1cc(Br)c(O)c(Br)c1)c1cc(Br)c(O)c(Br)c1" and report 84.3 µM (inactive)

Next compound: "CCN(CC)c1ccc(/N=N/c2ccc([N+](=O)[O-])cc2OC(=O)/C=C/c2ccccc2)c(OC(=O)/C=C/c2ccccc2)c1" 7.57 µM (inactive)

Next: "CC(=O)Oc1ccc2ccc(=O)oc2c1OC(C)=O" 37.1 µM (inactive)

Entry "CC1(C)CC(C)(C)C1=NNC(N)=O" please > 100 µM (inactive)
